subject of test: T1, cynomolgus TREM2 (cynomolgus, UniProt A0A2K5UY34 49-260)
T1 construct: also called cynoTREM2; cTREM2
T1 sequence: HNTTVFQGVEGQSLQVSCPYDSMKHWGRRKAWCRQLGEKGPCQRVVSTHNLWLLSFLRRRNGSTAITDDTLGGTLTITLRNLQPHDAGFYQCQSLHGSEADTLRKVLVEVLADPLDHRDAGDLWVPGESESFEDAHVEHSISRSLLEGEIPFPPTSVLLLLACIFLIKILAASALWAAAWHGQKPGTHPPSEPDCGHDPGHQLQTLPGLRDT
measurement description: MFI on CHO cells over-expressing cynoTREM2-DAP12
The reader will find reported Binding to CHO-cTREM2 MFI values listed item by item below.
Please respond with the number in MFI and leave the unit unwritten.

Problem: // query Binding to CHO-cTREM2 MFI value for entry EOS006172 (antibody, V domains shown) VH: QVQLVQSGAEVKKPGSSVKVSCKASGGTFSSYAISWVRQAPGQGLEWMGGIIPISGTANYAQKFQGRVTITADESTSTAYMELSSLRSEDTAVYYCARTQEYTLFDIWGQGTMVTVSS VL: EIVLTQSPATLSLSPGERATLSCRASQSVSSYLAWFQQKPGQAPRLLIYDASNRATGIPARFSGSGSGTDFTLTISSLEPEDFAVYYCQQDFHWPITFGGGTKVEIK
Solution: 17200

Next, consider the following binder.
Problem: Entry EOS006174 (antibody, V domains shown) VH: EVQLVESGGGLVQPGRSLRLSCTASGFTFGEYTMSWFRQAPGKGLEWVGFIGSKAYAGTTEYTASVKGRFTISRDGSKSIAYLQMNSLKTEDTAVYYCARGKRYSYGGWVPAFDVWGQGTMVTVSS VL: DIQMTQSPSSLSASVGDRVTITCQASQDITNYLNWYQQKPGKAPKLLIYDASNLETGVPSRFSGSGSGTDFTFTISSLQPEDIATYYCQEYDSYLAFGGGTKVEIK has what Binding to CHO-cTREM2 MFI?
Solution: 15700
